Test system: HCC-2998 colon
Test: NCI tumour cell line growth inhibition, 48 h
testReadout: GI50

Below are 3 molecules. Give each one its GI50.
1. CN=C(N)N/N=C(\c1ccccc1)c1ccc(Br)cc1
2. COc1cc2ncn(-c3cc(OCc4ccccc4Cl)c(C(N)=O)s3)c2cc1OC
3. C[C@@H]1CC[C@@H]2[C@@H]1[C@H](OC(=O)/C=C/c1ccccc1)[C@]1(c3ccccc3)C[C@@H](OC(=O)CO)[C@@]2(C)O1

1. 0.38 µM
2. 0.488 µM
3. 14.6 µM

###

Please respond with reported GI50 for every item in the list.
System: HCT-15 colon
Assay: NCI tumour cell line growth inhibition, 48 h

Consider the reported GI50 for these compounds:
- NC(N)=N/N=C(/c1ccccc1)c1ccc(F)cc1: 0.4 µM
- CN1CCN(CC#Cc2cccc(C(=O)c3cnn(-c4ccc(F)cc4)c3N)c2)CC1: > 25 µM
- CN=C(N)N/N=C(\c1ccccc1)c1ccc(Br)cc1: 0.306 µM
- C1COCCN1.C1COCCN1.N.N.[Cl-].[Pt+2]: > 100 µM

# query: GI50 of entry Cc1ccn2c3c(c(C(=O)O)c2c1)C(=O)c1ccccc1C3=O
5.14 µM

###

System: M14 melanoma
Assay: NCI tumour cell line growth inhibition, 48 h
testReadout: GI50

Illustrative cases are given below, each with its answer.
- CN1CCN(Cc2ccc(C(=O)Nc3cncc(C#Cc4cnc(N)c5ccccc45)c3)cc2C(F)(F)F)CC1: 4.22 µM
- C=C1CCC2C(/C=C(\C)CCC1O)OC(=O)C2C (stereo not given): > 100 µM
- CCn1c(-c2nonc2N)nc2c(C#CCN)ncc(OCCCN)c21: > 25 µM
- CCN1CCN(c2nc(NCCCNc3ccnc4cc(Cl)ccc34)c3ccccc3n2)CC1: 1.86 µM

Could you now consider this next molecule?
Field request: GI50 | item: CC1(C)N=C(N)N=C(N)N1c1ccc(CCCCc2ccc(S(=O)(=O)F)cc2)cc1
1.16 µM

###

System: COLO 205 colon
Assay: NCI tumour cell line growth inhibition, 48 h; in the data active means GI50 below about 0.43 µM; inactive means the rest
Hi! Could you answer with just one of these? y for active, n for inactive

Past entries and their recorded results:
* Clc1ccccc1C(c1ccccc1)(c1ccccc1)n1ccnc1 | n
* CCCCCCCCCC[C@@H](O)[C@H]1CC[C@H]([C@H]2CC[C@H]([C@H](O)CCCCCCCCCC[C@@H]3CC(CC(C)=O)C(=O)O3)O2)O1 (some centres undefined) | n
* COc1cc(/C=C\[N+](=O)[O-])ccc1O | n

Turning now to a further record.
Could you check what this test reported for NC(N)=N/N=C(/c1ccccc1)c1ccc(F)cc1 ?
y

###

System: MDA-MB-231 breast
Assay: NCI tumour cell line growth inhibition, 48 h
testReadout: TGI

Some entries whose results are on file:
• CSc1nc(SC)c2c(CN=[N+]=[N-])c(Br)n(Cc3ccccc3)c2n1 = > 100 µM
• CCOc1ccc(N/C(=C(/C(Cl)=C(/Cl)NCCN)[N+](=O)[O-])n2nnc3ccccc32)cc1 = > 100 µM
• O=c1c2ccccc2[nH]c(=S)n1-c1ccc(N=Nc2cccc3c(O)cccc23)cc1 = > 100 µM
• CCc1c2c(nc3cc4c(cc13)OCO4)-c1cc3c(c(=O)n1C2)COC(=O)[C@]3(O)CC = > 100 µM
• OCC1CCCC(n2cnc3c(=S)nc[nH]c32)O1 (stereo unspecified) = > 100 µM

I have this compound here, COc1c(C2CC(=O)Nc3c2cnn3Cc2ccco2)cc2c(c1OC)OCO2 (stereo unspecified) , and I need its recorded TGI.
> 26.4 µM
